- procedure summary: RP-TLC experimental lipophilicity
- Type: physicochemical
- condition info: RP-TLC, from RM0 by calibration equation
As shown below, each of these compounds has a reported logPTLC value.

[
  {
    "compound": "C#CC(=O)OC[C@]12CC[C@@H](C(=C)COP(=O)(OCC)OCC)C1C1CCC3[C@@]4(C)CC[C@H](O)C(C)(C)C4CC[C@@]3(C)[C@]1(C)CC2 (some centres unmarked) [Compound 7a]",
    "logPTLC": 6.937
  },
  {
    "compound": "C=C(CO)[C@@H]1CC[C@]2(COC(C)=O)CC[C@]3(C)C(CCC4[C@@]5(C)CC[C@H](OC(C)=O)C(C)(C)C5CC[C@]43C)C12 (some centres unmarked) [Compound 3, 3,28-Diacetyl-30-hydroxybetulin]",
    "logPTLC": 7.362
  },
  {
    "compound": "C#CCOC(=O)OC[C@]12CC[C@@H](C(=C)COP(=O)(OCC)OCC)C1C1CCC3[C@@]4(C)CC[C@H](OC(=O)OCC#C)C(C)(C)C4CC[C@@]3(C)[C@]1(C)CC2 (some centres unmarked) [Compound 6e]",
    "logPTLC": 8.419
  },
  {
    "compound": "C=C(COP(=O)(OCC)OCC)[C@@H]1CC[C@]2(COC(=O)C#CC3CC3)CC[C@]3(C)C(CCC4[C@@]5(C)CC[C@H](OC(=O)C#CC6CC6)C(C)(C)C5CC[C@]43C)C12 (some centres unmarked) [Compound 6c]",
    "logPTLC": 8.330
  },
  {
    "compound": "C=C(COP(=O)(OCC)OCC)[C@@H]1CC[C@]2(COC(=O)C#Cc3ccccc3)CC[C@]3(C)C(CCC4[C@@]5(C)CC[C@H](OC(=O)C#Cc6ccccc6)C(C)(C)C5CC[C@]43C)C12 (some centres unmarked) [Compound 6d]",
    "logPTLC": 10.174
  }
]

====

- Tested on: glioblastoma (SNB-19) cells
- procedure summary: WST-1 cell viability assay, SNB-19
- Type: cell-based, human
- condition info: Homo sapiens, SNB-19; WST-1, 72 h; read-out: IC50 ± SD, SNB-19
pIC50: −log10 of the molar value.

[
  {
    "molecule": "C=C(C)[C@@H]1CC[C@]2(CO)CC[C@]3(C)[C@H](CC[C@@H]4[C@@]5(C)CC[C@H](O)C(C)(C)[C@@H]5CC[C@]43C)[C@@H]12 [Betulin]",
    "pIC50": 5.00
  }
]

====

- Test system: amelanotic melanoma (C-32) cells
- procedure summary: WST-1 cell viability assay, C-32
- Type: cell-based, human
- condition info: Homo sapiens, C32; Table 5, betulonic/betulinic acid derivatives; WST-1, 72 h; read-out: IC50, C-32

[
  {
    "compound": "C=C(C)[C@@H]1CC[C@]2(C(=O)O)CC[C@]3(C)[C@H](CC[C@@H]4[C@@]5(C)CC[C@H](O)C(C)(C)[C@@H]5CC[C@]43C)[C@@H]12 [betulinic acid, reference compound]",
    "assayed system": "amelanotic melanoma (C-32) cells",
    "IC50, µM": 8.63
  }
]

====

- procedure summary: RP-TLC experimental lipophilicity
- Format: physicochemical
- condition info: RP-TLC, acetone/Tris buffer pH 7.4, extrapolated to zero acetone

[
  {
    "compound": "C=C(COP(=O)(OCC)OCC)[C@@H]1CC[C@]2(COC(=O)C#CC3CC3)CC[C@]3(C)C(CCC4[C@@]5(C)CC[C@H](OC(=O)C#CC6CC6)C(C)(C)C5CC[C@]43C)C12 (some centres unmarked)",
    "RM0": 6.419
  },
  {
    "compound": "C=C(COP(=O)(OCC)OCC)[C@@H]1CC[C@]2(COC(=O)C#Cc3ccccc3)CC[C@]3(C)C(CCC4[C@@]5(C)CC[C@H](OC(=O)C#Cc6ccccc6)C(C)(C)C5CC[C@]43C)C12 (some centres unmarked)",
    "RM0": 7.877
  },
  {
    "compound": "C=C(COP(=O)(OCC)OCC)[C@@H]1CC[C@]2(COC(=O)C#CC3CC3)CC[C@]3(C)C(CCC4[C@@]5(C)CC[C@H](O)C(C)(C)C5CC[C@]43C)C12 (some centres unmarked)",
    "RM0": 5.587
  },
  {
    "compound": "C=C(COP(=O)(OCC)OCC)[C@@H]1CC[C@]2(COC(=O)C#CC)CC[C@]3(C)C(CCC4[C@@]5(C)CC[C@H](O)C(C)(C)C5CC[C@]43C)C12 (some centres unmarked)",
    "RM0": 5.431
  },
  {
    "compound": "C=C(COP(=O)(OCC)OCC)C1CCC2(CO)CCC3(C)C(CCC4C5(C)CCC(O)C(C)(C)C5CCC43C)C12 (centres unmarked)",
    "RM0": 3.719
  }
]

====

[
  {
    "molecule": "C=C(COP(=O)(OCC)OCC)[C@@H]1CC[C@]2(COC(=O)C#CC)CC[C@]3(C)C(CCC4[C@@]5(C)CC[C@H](O)C(C)(C)C5CC[C@]43C)C12 (stereo partly drawn)",
    "melting point": "133 to 136 °C"
  },
  {
    "molecule": "C#CCOC(=O)OC[C@]12CC[C@@H](C(=C)COP(=O)(OCC)OCC)C1C1CCC3[C@@]4(C)CC[C@H](OC(=O)OCC#C)C(C)(C)C4CC[C@@]3(C)[C@]1(C)CC2 (stereo partly drawn)",
    "melting point": "129 to 131 °C"
  },
  {
    "molecule": "C#CC(=O)OC[C@]12CC[C@@H](C(=C)COP(=O)(OCC)OCC)C1C1CCC3[C@@]4(C)CC[C@H](OC(=O)C#C)C(C)(C)C4CC[C@@]3(C)[C@]1(C)CC2 (stereo partly drawn)",
    "melting point": "127 to 130 °C"
  },
  {
    "molecule": "C=C(COP(=O)(OCC)OCC)C1CCC2(CO)CCC3(C)C(CCC4C5(C)CCC(O)C(C)(C)C5CCC43C)C12 (stereo not drawn)",
    "melting point": "194 to 195 °C"
  },
  {
    "molecule": "C=C(COP(=O)(OCC)OCC)[C@@H]1CC[C@]2(COC(=O)C#CC3CC3)CC[C@]3(C)C(CCC4[C@@]5(C)CC[C@H](OC(=O)C#CC6CC6)C(C)(C)C5CC[C@]43C)C12 (stereo partly drawn)",
    "melting point": "67 to 70 °C"
  },
  {
    "molecule": "C=C(COP(=O)(OCC)OCC)[C@@H]1CC[C@]2(COC(=O)C#Cc3ccccc3)CC[C@]3(C)C(CCC4[C@@]5(C)CC[C@H](OC(=O)C#Cc6ccccc6)C(C)(C)C5CC[C@]43C)C12 (stereo partly drawn)",
    "melting point": "89 to 91 °C"
  },
  {
    "molecule": "C=C(COP(=O)(OCC)OCC)[C@@H]1CC[C@]2(COC(=O)C#CC3CC3)CC[C@]3(C)C(CCC4[C@@]5(C)CC[C@H](O)C(C)(C)C5CC[C@]43C)C12 (stereo partly drawn)",
    "melting point": "133 to 134 °C"
  },
  {
    "molecule": "C#CC(=O)OC[C@]12CC[C@@H](C(=C)COP(=O)(OCC)OCC)C1C1CCC3[C@@]4(C)CC[C@H](O)C(C)(C)C4CC[C@@]3(C)[C@]1(C)CC2 (stereo partly drawn)",
    "melting point": "177 to 180 °C"
  },
  {
    "molecule": "C=C(COP(=O)(OCC)OCC)[C@@H]1CC[C@]2(COC(C)=O)CC[C@]3(C)C(CCC4[C@@]5(C)CC[C@H](OC(C)=O)C(C)(C)C5CC[C@]43C)C12 (stereo partly drawn)",
    "melting point": "61 to 63 °C"
  },
  {
    "molecule": "C=C(COP(=O)(OCC)OCC)[C@@H]1CC[C@]2(COC(=O)C#Cc3ccccc3)CC[C@]3(C)C(CCC4[C@@]5(C)CC[C@H](O)C(C)(C)C5CC[C@]43C)C12 (stereo partly drawn)",
    "melting point": "131 to 134 °C"
  },
  {
    "molecule": "C=C(COP(=O)(OCC)OCC)[C@@H]1CC[C@]2(COC(=O)C#CC)CC[C@]3(C)C(CCC4[C@@]5(C)CC[C@H](OC(=O)C#CC)C(C)(C)C5CC[C@]43C)C12 (stereo partly drawn)",
    "melting point": "66 to 70 °C"
  },
  {
    "molecule": "C#CCOC(=O)OC[C@]12CC[C@@H](C(=C)COP(=O)(OCC)OCC)C1C1CCC3[C@@]4(C)CC[C@H](O)C(C)(C)C4CC[C@@]3(C)[C@]1(C)CC2 (stereo partly drawn)",
    "melting point": "172 to 174 °C"
  }
]
